Just for reference, patent US5627177A is where these values come from.

Target: 5-HT1A receptor (Rattus norvegicus)
Sequence (P19327 1-422): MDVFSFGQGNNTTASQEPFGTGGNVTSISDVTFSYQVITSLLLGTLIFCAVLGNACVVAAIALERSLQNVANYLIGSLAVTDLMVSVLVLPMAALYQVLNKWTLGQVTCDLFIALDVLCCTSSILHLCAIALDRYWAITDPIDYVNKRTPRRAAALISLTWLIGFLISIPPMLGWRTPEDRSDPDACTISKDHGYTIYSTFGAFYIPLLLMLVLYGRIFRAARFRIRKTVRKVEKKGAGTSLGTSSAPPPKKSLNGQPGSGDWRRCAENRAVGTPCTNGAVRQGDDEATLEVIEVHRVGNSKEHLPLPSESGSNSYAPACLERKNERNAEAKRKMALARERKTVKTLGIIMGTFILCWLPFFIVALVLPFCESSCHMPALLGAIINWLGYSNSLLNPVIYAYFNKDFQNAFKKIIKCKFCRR
Experiment: 5-HT1A receptor binding activity in rat hippocampal membrane homogenate
measurementType: pIC50
Recall that pIC50 is obtained by taking minus log10 of the concentration measured in molar.

Enquiry: Dear colleague, I am looking for the recorded pIC50 of the following compound: COC(=O)c1cc2c(N3CCN(CCC(C(=O)N4CCCCCC4)c4ccccc4)CC3)cccc2[nH]1 (racemic)
Return: 9.14
